# melting point annotations

CCOc1ccc(C2=NN(c3ccc(C(=O)N4CCN(c5cnn(-c6ccccc6)c(=O)c5Cl)CC4)cc3)C(=O)[C@@H]3CC=CC[C@H]23)cc1OCC : 148 to 151 °C
COc1ccc(C2=NN(c3ccc(C(=O)N4CCN(CCCN(C)C)CC4)cc3)C(=O)[C@@H]3CC=CC[C@H]23)c2c1OC(C)(C)C2.Cl.Cl : 262 °C (dec.)
CCOC(=O)N1CCN(C(=O)c2ccc(N3N=C(c4ccc(OCC)c(OCC)c4)[C@H]4CC=CC[C@H]4C3=O)cc2)CC1 : 146 to 147 °C
COc1ccc(C2=NN(c3ccc(C(=O)N4CCN(C/C=C/c5ccccc5)CC4)cc3)C(=O)[C@@H]3CC=CC[C@H]23)c2c1OC(C)(C)C2.Cl : 230 to 231 °C
CCOc1ccc(C2=NN(c3ccc(C(=O)N4CCN(C(=O)c5ccco5)CC4)cc3)C(=O)[C@@H]3CC=CC[C@H]23)cc1OCC : 114 to 115 °C
CCOc1ccc(C2=NN(c3ccc(C(=O)N4CCN(Cc5ccncc5)CC4)cc3)C(=O)[C@@H]3CC=CC[C@H]23)cc1OCC.Cl.Cl : 83 to 85 °C
COc1ccc(C2=NN(c3ccc(C(=O)N4CCN(c5ccccc5)CC4)cc3)C(=O)[C@@H]3CC=CC[C@H]23)c2c1OC(C)(C)C2 : 185 to 186 °C
CCOc1ccc(C2=NN(c3ccc(C(=O)N4CCN(CCN5CCCC5)CC4)cc3)C(=O)[C@@H]3CC=CC[C@H]23)cc1OCC.Cl.Cl : 185 to 186 °C
CCOc1ccc(C2=NN(c3ccc(C(=O)N4CCN(c5ccc(C(F)(F)F)cn5)CC4)cc3)C(=O)[C@@H]3CC=CC[C@H]23)cc1OCC : 121 to 123 °C
COc1ccc(C2=NN(c3ccc(C(=O)N4CCN(CCN5CCOCC5)CC4)cc3)C(=O)[C@@H]3CC=CC[C@H]23)c2c1OC(C)(C)C2.Cl.Cl : 271 °C (dec.)

Ask | Indicate its recorded melting point; the compound in question is COc1ccc(C2=NN(c3ccc(C(=O)N4CCN(CC(=O)N5CCOCC5)CC4)cc3)C(=O)[C@@H]3CC=CC[C@H]23)cc1OC.Cl
Reply | 168 to 169 °C

Ask | Indicate its recorded melting point; the compound in question is CCOc1ccc(C2=NN(c3ccc(C(=O)N4CCN(CCCN(C)C)CC4)cc3)C(=O)[C@@H]3CC=CC[C@H]23)cc1OCC.Cl.Cl
Reply | 248 °C (dec.)
